Every entry's value here was drawn from ChEMBL document CHEMBL1671832.

# assay.name: Volume of distribution at steady state in rat at 1 mg/kg, iv and 2 mg/kg, po
# Format: ADME, organism-based
# particulars: in vivo, read-out: Vdss
measure: Vd (L/kg)
Please give a number only; it is taken to be in L/kg.

Find the measured Vd of C[C@H]1C[C@@H](NS(=O)(=O)c2cc(Br)ccc2Br)CN1C#N and report it.
3.1

* * *

# target.under.test: Procathepsin L (Homo sapiens)
# Sequence (P07711 whole entry): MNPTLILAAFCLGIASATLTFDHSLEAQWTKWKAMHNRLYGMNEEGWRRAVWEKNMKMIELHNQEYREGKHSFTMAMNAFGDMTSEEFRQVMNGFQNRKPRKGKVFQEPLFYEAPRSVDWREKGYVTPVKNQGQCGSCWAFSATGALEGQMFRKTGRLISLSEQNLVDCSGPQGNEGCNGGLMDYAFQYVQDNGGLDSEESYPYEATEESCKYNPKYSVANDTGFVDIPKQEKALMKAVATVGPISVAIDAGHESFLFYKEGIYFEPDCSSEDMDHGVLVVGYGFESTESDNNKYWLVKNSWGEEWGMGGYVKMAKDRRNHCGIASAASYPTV
# assay.name: Inhibition of human recombinant cathepsin L after 1 hr
pIC50: −log10 of the molar value.
I would appreciate it if you labelled entries rule met when pIC50 is 6 or higher, otherwise rule not met.

>  <molecule>
COc1ccc(OC)c(S(=O)(=O)N[C@@H]2C[C@@H](C)N(C#N)C2)c1

>  <target.under.test>
Procathepsin L (Homo sapiens)

>  <assigned.category>
rule not met

$$$$
>  <molecule>
CC(C)(C)OC(=O)N1CC[C@@H](NS(=O)(=O)c2cccc(Br)c2)C1

>  <target.under.test>
Procathepsin L (Homo sapiens)

>  <assigned.category>
rule not met

$$$$
>  <molecule>
C[C@H]1C[C@@H](NS(=O)(=O)c2cccc(Br)c2)CN1C#N

>  <target.under.test>
Procathepsin L (Homo sapiens)

>  <assigned.category>
rule not met

$$$$
>  <molecule>
N#CN1CCCC1

>  <target.under.test>
Procathepsin L (Homo sapiens)

>  <assigned.category>
rule not met

$$$$
>  <molecule>
O=CN1CC[C@@H](NS(=O)(=O)c2cccc(Br)c2)C1

>  <target.under.test>
Procathepsin L (Homo sapiens)

>  <assigned.category>
rule not met

$$$$

Can N#CN1CC[C@@H](NS(=O)(=O)c2cccc(Br)c2)C1 be said to have pIC50 at or above 6?
rule met

Is the recorded value of pIC50 equal to or greater than 6 for this molecule? N#CN1CCC(CCc2ccccc2)C1 (stereo not drawn)
rule met

// inclusive: pIC50 at least 6? input: COc1ccc(OC)c(S(=O)(=O)N[C@@H]2C[C@H](C)N(C#N)C2)c1
rule not met

Assess whether reported pIC50 for C[C@@H]1C[C@@H](NS(=O)(=O)c2cccc(Br)c2)CN1C#N sits at 6 or higher.
rule not met

Could you verify whether the entry N#CN1CC[C@@H](NS(=O)(=O)c2cc(Br)ccc2Br)C1 shows pIC50 of no less than 6?
rule met

Is reported pIC50 greater than or equal to 6 here: C[C@H]1C[C@@H](NS(=O)(=O)c2cc(Br)ccc2Br)CN1C#N
rule met

* * *

# target.under.test: Cathepsin S (Homo sapiens)
# assay.name: Inhibition of human recombinant cathepsin S after 1 hr
# key: entry, value: pIC50
Here pIC50 is given on a logarithmic scale as minus log10 of the concentration in mol/L.

Observe how each entry below is paired with its result.
>  <compound>
C[C@H]1C[C@@H](NS(=O)(=O)c2cccc(Br)c2)CN1C#N

>  <pIC50>
5.40

$$$$
>  <compound>
N#CN1CC[C@@H](NC(=O)Nc2ccccc2)C1

>  <pIC50>
5.40

$$$$

Quote pIC50 reported for COc1ccc(OC)c(S(=O)(=O)N[C@@H]2C[C@H](C)N(C#N)C2)c1 please.
4.80

Supply reported pIC50 belonging to this compound: COc1ccc(OC)c(S(=O)(=O)N[C@@H]2CCN(C#N)C2)c1
5.70

# return recorded pIC50 for entry N#CN1CC[C@@H](NS(=O)(=O)c2cc(Br)ccc2Br)C1
6.90

* * *

# target.under.test: Cathepsin K (Homo sapiens)
# Sequence (P43235 whole entry): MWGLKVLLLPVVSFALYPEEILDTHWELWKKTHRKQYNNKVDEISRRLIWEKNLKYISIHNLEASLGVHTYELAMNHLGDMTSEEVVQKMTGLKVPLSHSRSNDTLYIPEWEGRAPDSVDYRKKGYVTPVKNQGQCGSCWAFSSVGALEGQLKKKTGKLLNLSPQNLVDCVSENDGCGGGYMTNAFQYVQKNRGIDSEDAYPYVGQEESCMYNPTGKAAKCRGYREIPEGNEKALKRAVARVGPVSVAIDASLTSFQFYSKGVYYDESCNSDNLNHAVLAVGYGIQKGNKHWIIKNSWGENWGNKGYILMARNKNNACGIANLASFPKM
# assay.name: Inhibition of human recombinant cathepsin K after 1 hr
pIC50: −log10 of the molar value.
Please use Met whenever pIC50 is not below 7, and Not met whenever it is.

Worked examples follow.
>  <molecule>
N#CN1CC[C@@H](NS(=O)(=O)c2ccccc2)C1

>  <target.under.test>
Cathepsin K (Homo sapiens)

>  <assigned.category>
Not met

$$$$
>  <molecule>
N#CN1CCCC(CCc2ccccc2)C1 (stereo unspecified)

>  <target.under.test>
Cathepsin K (Homo sapiens)

>  <assigned.category>
Not met

$$$$
>  <molecule>
N#CN1CC[C@@H](NS(=O)(=O)c2cc(Br)ccc2Br)C1

>  <target.under.test>
Cathepsin K (Homo sapiens)

>  <assigned.category>
Met

$$$$
>  <molecule>
COc1ccc(OC)c(S(=O)(=O)N[C@@H]2C[C@@H](C)N(C#N)C2)c1

>  <target.under.test>
Cathepsin K (Homo sapiens)

>  <assigned.category>
Not met

$$$$

Could you please find out whether N#CN1CC[C@H](NS(=O)(=O)c2ccccc2)C1 has pIC50 that meets 7 or exceeds it?
Met

For this molecule, is measured pIC50 7 or higher? N#CN1CCCC1
Not met

API: above_or_equal(metric=pIC50, cutoff=7) for item CC(C)(C)OC(=O)N1CC[C@@H](NS(=O)(=O)c2cccc(Br)c2)C1
Not met

# check: pIC50 of C[C@@H]1C[C@@H](NS(=O)(=O)c2cccc(Br)c2)CN1C#N is greater than or equal to 7
Not met

// inclusive: pIC50 at least 7? input: C[C@H]1C[C@@H](NS(=O)(=O)c2cccc(Br)c2)CN1C#N
Not met

Hi team, for N#CN1CCC(CCc2ccccc2)C1 (stereo unspecified) , is the recorded pIC50 at or above 7?
Not met

Can COc1ccc(OC)c(S(=O)(=O)N[C@@H]2C[C@H](C)N(C#N)C2)c1 be said to have pIC50 at or above 7?
Not met

Exam item: decide whether the reported pIC50 for N#CN1CC[C@@H](NS(=O)(=O)c2cccc(Br)c2)C1 is at least 7.
Met

Exam item: decide whether the reported pIC50 for O=CN1CC[C@@H](NS(=O)(=O)c2cccc(Br)c2)C1 is at least 7.
Not met

Does C[C@H]1C[C@@H](NS(=O)(=O)c2cc(Br)ccc2Br)CN1C#N have a reported pIC50 of at least 7?
Met

* * *

# assay.name: Plasma clearance in dog at 5 mg/kg, iv and 10 mg/kg, po
# Format: ADME, organism-based, Canis lupus familiaris
measure: clearance (mL/min/kg)
I only need the number, in mL/min/kg, no unit after it.

Look up clearance of C[C@H]1C[C@@H](NS(=O)(=O)c2cc(Br)ccc2Br)CN1C#N and report it.
29

* * *

# assay.name: Half life in mouse at 5 mg/kg, iv and 20 mg/kg, po
# Type: ADME, organism-based
# particulars: in vivo
measure: half-life (min)
Report only the number, with the unit min understood.

Quickly give me recorded half-life for C[C@H]1C[C@@H](NS(=O)(=O)c2cc(Br)ccc2Br)CN1C#N
12

* * *

# target.under.test: Dipeptidyl peptidase 1 (Homo sapiens)
# Sequence (P53634 25-134 limits assumed): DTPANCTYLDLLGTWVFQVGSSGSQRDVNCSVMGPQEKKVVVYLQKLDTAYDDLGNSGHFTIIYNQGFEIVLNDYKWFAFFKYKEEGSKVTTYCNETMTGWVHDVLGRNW
# Sequence (P53634 231-394 limits assumed): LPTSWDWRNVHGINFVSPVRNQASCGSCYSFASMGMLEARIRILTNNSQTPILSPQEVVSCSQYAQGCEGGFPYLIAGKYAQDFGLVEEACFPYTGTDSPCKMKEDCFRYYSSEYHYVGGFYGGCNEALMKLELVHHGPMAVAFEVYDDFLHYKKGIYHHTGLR
# Sequence (P53634 395-463 limits assumed): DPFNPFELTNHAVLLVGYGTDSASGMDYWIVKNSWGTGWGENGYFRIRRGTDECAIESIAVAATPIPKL
# assay.name: Inhibition of human recombinant cathepsin C after 1 hr
pIC50: −log10 of the molar value.
Each entry below carries its recorded pIC50.

>  <compound>
COc1ccc(OC)c(S(=O)(=O)N[C@@H]2C[C@@H](C)N(C#N)C2)c1

>  <pIC50>
< 4.60

$$$$

Answer with the recorded pIC50 of N#CN1CC[C@@H](NS(=O)(=O)c2cc(Br)ccc2Br)C1 only.
> 9.40

Supply recorded pIC50 for N#CN1CCCC1 [CYANO-PYRROLIDINE] here.
< 4.60

Given the compound CC(C)(C)OC(=O)N1CC[C@@H](NS(=O)(=O)c2cccc(Br)c2)C1 , write its reported pIC50.
< 4.60

Look up and report measured pIC50 for this entry: C[C@H]1C[C@@H](NS(=O)(=O)c2cc(Br)ccc2Br)CN1C#N
8.50

Tell me measured pIC50 for N#CN1CCCC(CCc2ccccc2)C1 (centres undefined) please.
< 4.60

Please give the documented pIC50 of N#CN1CC[C@H](NS(=O)(=O)c2ccccc2)C1
6.50

Look up pIC50 of COc1ccc(OC)c(S(=O)(=O)N[C@@H]2CCN(C#N)C2)c1 and report it.
8.00

# return recorded pIC50 for input O=CN1CC[C@@H](NS(=O)(=O)c2cccc(Br)c2)C1
< 4.60

* * *

# target.under.test: Cathepsin S (Homo sapiens, UniProt P25774)
# Sequence (P25774 whole entry): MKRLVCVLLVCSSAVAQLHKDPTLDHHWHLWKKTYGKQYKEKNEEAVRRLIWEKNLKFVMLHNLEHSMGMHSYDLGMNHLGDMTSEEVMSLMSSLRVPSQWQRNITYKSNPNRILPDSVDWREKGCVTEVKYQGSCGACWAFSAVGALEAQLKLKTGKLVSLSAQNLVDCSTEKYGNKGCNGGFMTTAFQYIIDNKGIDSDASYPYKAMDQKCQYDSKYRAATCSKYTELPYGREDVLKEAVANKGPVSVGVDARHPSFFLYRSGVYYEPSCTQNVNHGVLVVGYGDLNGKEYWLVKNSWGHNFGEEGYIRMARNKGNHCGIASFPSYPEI
# assay.name: Inhibition of human recombinant cathepsin S after 1 hr
Here the recorded pIC50 is given for each entry.
Scale explanation: pIC50 corresponds to minus log10 of a concentration expressed in moles per litre.

>  <compound>
C[C@H]1C[C@@H](NS(=O)(=O)c2cc(Br)ccc2Br)CN1C#N

>  <target.under.test>
Cathepsin S (Homo sapiens, UniProt P25774)

>  <pIC50>
6.00

$$$$
>  <compound>
N#CN1CCCC(CCc2ccccc2)C1 (configuration not stated)

>  <target.under.test>
Cathepsin S (Homo sapiens, UniProt P25774)

>  <pIC50>
5.10

$$$$

Write down pIC50 measured for item N#CN1CCC(CCc2ccccc2)C1 (configuration not stated)
5.80

Input N#CN1CC[C@@H](NS(=O)(=O)c2ccccc2)C1 , output reported pIC50.
5.80

Could you please provide reported pIC50 for N#CN1CC[C@@H](NS(=O)(=O)c2cccc(Br)c2)C1 ? Thanks!
6.50

Determine from records and report pIC50 for C[C@@H]1C[C@@H](NS(=O)(=O)c2cccc(Br)c2)CN1C#N
4.80

Tell me pIC50 reported for N#CN1CC[C@H](NS(=O)(=O)c2ccccc2)C1
6.30

Please report pIC50 for the following compound: N#CN1CCCC1 [CYANO-PYRROLIDINE]
4.60

Give reported pIC50 value for N#CN1CC[C@@H](NC(=O)c2ccc(F)cc2)C1
4.90
